Attribute: pIC50
Experimental Target: Recombinant STAT6 protein (STAT6(W123-T658)) (Homo sapiens, UniProt P42226)
Construct: STAT6(W123-T658)
Sequence (P42226 123-658, species assumed): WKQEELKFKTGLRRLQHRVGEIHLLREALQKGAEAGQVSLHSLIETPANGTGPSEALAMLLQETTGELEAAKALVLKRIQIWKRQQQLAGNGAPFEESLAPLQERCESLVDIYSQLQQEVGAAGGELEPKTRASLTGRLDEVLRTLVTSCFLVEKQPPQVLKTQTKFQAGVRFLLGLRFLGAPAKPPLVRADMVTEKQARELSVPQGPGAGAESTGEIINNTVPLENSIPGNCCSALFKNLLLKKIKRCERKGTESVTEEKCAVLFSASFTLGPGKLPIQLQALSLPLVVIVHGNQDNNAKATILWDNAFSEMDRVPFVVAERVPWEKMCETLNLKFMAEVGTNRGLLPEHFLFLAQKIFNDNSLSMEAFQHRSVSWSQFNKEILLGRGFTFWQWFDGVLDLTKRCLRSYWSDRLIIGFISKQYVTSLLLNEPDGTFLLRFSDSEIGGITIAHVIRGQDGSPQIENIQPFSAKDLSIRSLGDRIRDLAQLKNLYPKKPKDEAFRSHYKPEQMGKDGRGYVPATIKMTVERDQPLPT
Test Name: STAT6 Fluorescence Polarization (FP) Assay
Condition Parameters: STAT6(W123-T658) 250 nM, probe 5-FAM-ApYKPFQDLI-NH2 2 nM, 45-minute incubation
pIC50: −log10 of the molar value.

Ask | I am curious: what pIC50 value has been reported for `CCc1ccncc1C1CN(C(=O)[C@@H]2CC[C@@H]3C[C@H]4C[C@H]4C[C@H](NC(=O)c4cc5cc(CP(=O)(O)O)ccc5s4)C(=O)N32)C1` ?
Reply | < 4.52

Ask | Then `O=C(N[C@H]1C[C@@H]2C[C@@H]2C[C@H]2CC[C@@H](C(=O)N3CC4(CN(C(=O)Cc5ccccc5)C4)C3)N2C1=O)c1cc2cc(C(F)(F)P(=O)(O)O)ccc2s1` ?
Reply | 5.52 to 6.52

Ask | Param item: CN(C)c1ccncc1[C@H]1CN(C(=O)[C@@H]2CC[C@@H]3C[C@H]4C[C@H]4C[C@H](NC(=O)c4cc5cc([C@H](F)P(=O)(O)O)ccc5s4)C(=O)N32)C2(CC2)C1 (single isomer, unassigned)
Reply | ≥ 6.52

Continuing:
Ask | Could you tell me which pIC50 is on file for `O=C(N[C@H]1C[C@@H]2C[C@@H]2C[C@H]2CC[C@@H](C(=O)N3CC(c4cnccc4F)C3)N2C1=O)c1cc2cc(CP(=O)(O)O)ccc2s1` ?
Reply | < 4.52

Ask | Cool, now `O=C(N[C@H]1C[C@@H]2C[C@@H]2C[C@H]2CC[C@@H](C(=O)N3CC(Cc4ccccc4F)C3)N2C1=O)c1cc2cc(CP(=O)(O)O)ccc2s1`
Reply | 4.52 to 5.52

Ask | And what about the molecule O=C(N[C@H]1C[C@H]2C[C@H]2C[C@H]2CC[C@@H](C(=O)N[C@H]3CN(c4cccnc4)C[C@@H]3F)N2C1=O)c1cc2cc(C(F)P(=O)(O)O)ccc2s1 (some centres unmarked) ?
Reply | 5.52 to 6.52

Ask | Quick one: `CC(=O)N1CC[C@H](NC(=O)[C@@H]2CC[C@@H]3C[C@H]4C[C@H]4C[C@H](NC(=O)c4cc5cc(C(F)(F)P(=O)(O)O)ccc5s4)C(=O)N32)C1`
Reply | 5.52 to 6.52

Ask | And for CN(C)c1ccncc1[C@@H]1CN(C(=O)[C@@H]2CC[C@@H]3C[C@H]4C[C@H]4C[C@H](NC(=O)c4cc5cc([C@H](F)P(=O)(O)O)ccc5s4)C(=O)N32)C2(CC2)C1 (single isomer, unassigned) ?
Reply | 5.52 to 6.52

Ask | Query `Cc1ncccc1C1CN(C(=O)[C@@H]2CC[C@@H]3C[C@@H]4C[C@@H]4C[C@H](NC(=O)c4cc5cc(C(F)(F)P(=O)(O)O)ccc5s4)C(=O)N32)C1` next
Reply | 4.52 to 5.52

Ask | Another molecule to check: `O=C(N[C@H]1C[C@H]2C[C@H]2C[C@H]2CC[C@@H](C(=O)N3CC(c4cccnc4)C3)N2C1=O)c1cc2cc([C@H](F)P(=O)(O)O)ccc2s1`
Reply | 4.52 to 5.52

Ask | Next record, please: CC(=O)N1CCC2C1CN2C(=O)[C@@H]1CC[C@@H]2C[C@H]3C[C@H]3C[C@H](NC(=O)c3cc4cc(CP(=O)(O)O)ccc4s3)C(=O)N21 (some centres unmarked)
Reply | < 4.52

Ask | Quick one: `O=C(N[C@H]1C[C@@H]2C[C@@H]2C[C@H]2CC[C@@H](C(=O)N3CCN(C4COC4)CC3)N2C1=O)c1cc2cc(C(F)(F)P(=O)(O)O)ccc2s1`
Reply | 4.52 to 5.52

Ask | Now this one: O=C(N[C@H]1C[C@@H]2C[C@@H]2C[C@H]2CC[C@@H](C(=O)N3CCC4C3CN4c3cccnc3)N2C1=O)c1cc2cc(C(F)(F)P(=O)(O)O)ccc2s1 (some centres unmarked)
Reply | 5.52 to 6.52

Ask | Consider next the molecule `C[C@]12CC[C@H](NC(=O)c3cc4cc(CP(=O)(O)O)ccc4s3)C(=O)N3[C@H](CC[C@H]3C(=O)N3CC(c4cccnc4)C3)[C@H]1C2` in the same way.
Reply | < 4.52
